Measured Target: Cellular tumor antigen p53 (Homo sapiens) (UniProt P04637)
Sequence (P04637 whole entry, looked up): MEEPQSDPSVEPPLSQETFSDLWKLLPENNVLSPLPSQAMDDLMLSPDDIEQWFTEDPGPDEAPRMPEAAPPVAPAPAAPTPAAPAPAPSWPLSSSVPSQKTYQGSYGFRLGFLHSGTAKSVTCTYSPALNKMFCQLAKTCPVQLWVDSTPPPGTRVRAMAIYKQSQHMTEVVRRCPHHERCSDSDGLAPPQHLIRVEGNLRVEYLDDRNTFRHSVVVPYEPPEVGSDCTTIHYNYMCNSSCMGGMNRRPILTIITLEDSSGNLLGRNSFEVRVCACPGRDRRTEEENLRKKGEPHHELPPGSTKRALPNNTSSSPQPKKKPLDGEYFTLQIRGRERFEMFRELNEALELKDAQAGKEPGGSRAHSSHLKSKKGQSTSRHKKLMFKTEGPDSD
Experiment Notes: p53 stabilisation in HPV-positive human cells, imaging, p53-positive nuclei imaging, 24 h, 48 h (AID 1508601)
Assay Setup: 24/48 h, Library stock concentration: 2 mM, active compounds read high
The whole screen tested about 5,700 compounds, of which about 85 (1%) were called active. Shown is part of a subset that was picked to be rich in actives.
Assay Readout: p53-positive nuclei, normalised (%)
The answer is to be given in %; state only the numeric part.

For orientation, consider the following solved cases.
NCCc1ccccc1Br; 0.0298
Cc1sc2c(c1C)C(c1ccc(Cl)cc1)=NC(CC(=O)Nc1ccc(O)cc1)c1nnc(C)n1-2 (stereo not given); 3.49

query: Enter reported p53-positive nuclei, normalised observed with Cellular tumor antigen p53 (Homo sapiens) (UniProt P04637) for CC1=C(O)C(=O)C=C2C1=CC=C1[C@@]2(C)CCC2(C)C3C[C@](C)(C(=O)O)CC[C@]3(C)CC[C@]12C (stereo not given in full)
result: 0.635

query: Enter reported p53-positive nuclei, normalised observed with Cellular tumor antigen p53 (Homo sapiens) (UniProt P04637) for O=C1C(=O)c2cccc3cccc1c23
result: 0.165

query: Enter reported p53-positive nuclei, normalised observed with Cellular tumor antigen p53 (Homo sapiens) (UniProt P04637) for CCn1cnc2c(Nc3cccc(Cl)c3)nc(NC3CCCCC3N)nc21 (stereo not given)
result: 0.0322
